// reported binding signal for each item listed
tested_system: OsWRKY34 (Oryza sativa, UniProt Q0JBA9 1-250)
Sequence (Q0JBA9 entry or part of it): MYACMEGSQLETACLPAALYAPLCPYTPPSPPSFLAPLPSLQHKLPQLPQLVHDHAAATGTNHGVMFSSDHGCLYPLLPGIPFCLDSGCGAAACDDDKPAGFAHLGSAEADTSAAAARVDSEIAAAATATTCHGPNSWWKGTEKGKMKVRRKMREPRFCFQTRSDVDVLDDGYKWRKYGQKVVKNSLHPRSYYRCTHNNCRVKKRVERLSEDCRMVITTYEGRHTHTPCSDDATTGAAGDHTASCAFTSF
test_description: protein-binding microarray (RPBM); PBS, 2% BSA, 51.3 ng/ul salmon testes DNA, 50 uM zinc acetate, 200 nM TF, 25 C, 1 h; high values mean tight binding
test_context: protein: recombinant; tags: N-terminal polyhistidine and DsRed monomer fusion (pET32a); label: CyDye5-dUTP incorporated in the synthesized complementary strand; 3' TTTTT single-stranded linker to array surface; dsDNA, one strand shown
In all, about 68,000 sequences were measured (“fluorescence intensity (a.u.)”: median about 9,100, highest 2% from about 16,000 on). Only a selection was taken, and the highest values are over-represented in it overall.

sequence_entry=CTTATACATTGGGTTGAGGGTTTTTTTGGTTGAGTTCGGCCGGAGTCACCTAGTGCAG tested_system="OsWRKY34 (Oryza sativa, UniProt Q0JBA9 1-250)" assay_readout="binding signal" value="9220 fluorescence intensity (a.u.)"
sequence_entry=TCCTTGCTCCATCAGTATTACACCACCCAACACAAGCTCACGGAGTCACCTAGTGCAG tested_system="OsWRKY34 (Oryza sativa, UniProt Q0JBA9 1-250)" assay_readout="binding signal" value="8870 fluorescence intensity (a.u.)"
sequence_entry=GGTTGACCGTAGTCAACTCGCCACGTTGACTAGAACCGAGCGGAGTCACCTAGTGCAG tested_system="OsWRKY34 (Oryza sativa, UniProt Q0JBA9 1-250)" assay_readout="binding signal" value="17900 fluorescence intensity (a.u.)"
sequence_entry=TATCACGATATTCTACCTCGCTCTCATGGGCTAGATCACCCGGAGTCACCTAGTGCAG tested_system="OsWRKY34 (Oryza sativa, UniProt Q0JBA9 1-250)" assay_readout="binding signal" value="9500 fluorescence intensity (a.u.)"
sequence_entry=GCCACGAGTTCCACGGCCGCGGCGTCGTCGTCGTCGTCGTCGGAGTCACCTAGTGCAG tested_system="OsWRKY34 (Oryza sativa, UniProt Q0JBA9 1-250)" assay_readout="binding signal" value="8090 fluorescence intensity (a.u.)"
sequence_entry=ACTTTGTCACTTGACTTATTCTCTGGCCGTGCGTATAAATCGGAGTCACCTAGTGCAG tested_system="OsWRKY34 (Oryza sativa, UniProt Q0JBA9 1-250)" assay_readout="binding signal" value="8150 fluorescence intensity (a.u.)"

Given the sequence CGCCACCATCGCTGCGCCGCCATCGCCACCACCGCAGCCGCGGAGTCACCTAGTGCAG , what is its reported binding signal?
8840 fluorescence intensity (a.u.)

And then CGTAGGCCACGCCACCTCACCCTGTTGACCGAGTCAAACCCGGAGTCACCTAGTGCAG , what is it?
11900 fluorescence intensity (a.u.)

And then TCGTCGGCGTCGCGTTCACGGCCGCCGTGGCCGTGGCCGTCGGAGTCACCTAGTGCAG , what is it?
16500 fluorescence intensity (a.u.)
